The measured values listed here are drawn from the supplement of paper PMC10307832.

- Tested on: NCI-H520
- Assay info: relative viability (nuclei count vs DMSO), 5 days (fraction); higher = more cells survive
- Settings: first compound 0.01581 µM

Compound: COc1cc2nccc(Oc3ccc(NC(=O)Nc4cc(C)on4)c(Cl)c3)c2cc1OC [Tivozanib] + CCNC(=O)c1noc(-c2cc(C(C)C)c(O)cc2O)c1-c1ccc(CN2CCOCC2)cc1 [Luminespib] (partner 0.01 µM)
Tested system: NCI-H520
relative viability: 0.219
//
Compound: Nc1ccn([C@@H]2O[C@H](CO)[C@@H](O)[C@@H]2O)c(=O)n1 [Cytarabine] + COc1cccc2cc(-c3nc([C@H]4CC[C@H](C(=O)O)CC4)n4ncnc(N)c34)[nH]c12 [OSI-027] (partner 0.5 µM)
Tested system: NCI-H520
relative viability: 0.262
//
Compound: COc1cc2nccc(Oc3ccc(NC(=O)Nc4cc(C)on4)c(Cl)c3)c2cc1OC [Tivozanib] + CC(C)C[C@H](NC(=O)[C@H](Cc1ccccc1)NC(=O)c1cnccn1)B(O)O [Bortezomib] (partner 0.002 µM)
Tested system: NCI-H520
relative viability: 0.693
//
Compound: COc1cc2nccc(Oc3ccc(NC(=O)Nc4cc(C)on4)c(Cl)c3)c2cc1OC [Tivozanib] + Cc1nc(NC(=O)N2CCC[C@H]2C(N)=O)sc1-c1ccnc(C(C)(C)C(F)(F)F)c1 [Alpelisib] (partner 2 µM)
Tested system: NCI-H520
relative viability: 0.847
